TGT: HDAC3 (Homo sapiens, UniProt O15379)
Construct: purchased BioMol
Sequence (O15379 whole entry): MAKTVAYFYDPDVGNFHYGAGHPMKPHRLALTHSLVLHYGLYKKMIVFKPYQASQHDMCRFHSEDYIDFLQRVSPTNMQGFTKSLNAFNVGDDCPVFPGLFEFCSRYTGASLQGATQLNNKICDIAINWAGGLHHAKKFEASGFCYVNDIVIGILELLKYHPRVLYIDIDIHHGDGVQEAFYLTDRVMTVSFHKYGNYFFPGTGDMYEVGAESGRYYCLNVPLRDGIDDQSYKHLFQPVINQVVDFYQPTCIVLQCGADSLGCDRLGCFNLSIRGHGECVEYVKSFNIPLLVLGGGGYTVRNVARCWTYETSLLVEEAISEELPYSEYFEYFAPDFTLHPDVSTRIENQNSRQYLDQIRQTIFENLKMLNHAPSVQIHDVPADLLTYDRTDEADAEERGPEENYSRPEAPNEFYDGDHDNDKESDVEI
Sequence (O75376 395-489 partner limits assumed): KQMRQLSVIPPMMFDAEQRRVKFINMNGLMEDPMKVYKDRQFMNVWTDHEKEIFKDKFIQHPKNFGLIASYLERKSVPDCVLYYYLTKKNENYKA
TEST_NAME: HDAC isoform assay, HDAC3
Type: biochemical
CONDITION_DESCRIPTION: substrate KI-177; read-out: HDAC3, IC50, ELISA (KI-177)
Entries and their IC50 values follow.
Return type: number; implicit unit nM.

Before answering, review these 2 worked examples.
                                   compound                                   tgt  units_of_measure  experimental_value
0  O=C(CCCCCCNC(=O)C(=O)c1cn2c3c(cccc13)CCC2)NO  HDAC3 (Homo sapiens, UniProt O15379)                nM                87.6
1   O=C(CCCCCNC(=O)Nc1cn2c3c(cccc13)CCC2)NO  HDAC3 (Homo sapiens, UniProt O15379)                nM                20.5

Form field: reported IC50 of CC(C)(C)OC(=O)N1CCn2cc(C(=O)NCc3ccc(C(=O)NO)cc3)c3cccc(c32)C1
518

Form field: reported IC50 of O=C(CCCCCCNC(=O)Nc1cn2c3c(cccc13)CCC2)NO
23

Form field: reported IC50 of O=C(NO)c1ccc(CNC(=O)c2cn3c4c(cccc24)CCC3)cc1
26.5

Form field: reported IC50 of O=C(CCCCCCNC(=O)c1cc2cccc3c2n1CCC3)NO
37

Form field: reported IC50 of O=C(CCC1CCN(C(=O)c2cn3c4c(cccc24)CCC3)CC1)NO
29.8

* * *

TGT: HDAC1 (Homo sapiens, UniProt Q13547)
Construct: cell extract containing HDAC (HeLa in these experiments); endogenous in cells
Sequence (Q13547 whole entry): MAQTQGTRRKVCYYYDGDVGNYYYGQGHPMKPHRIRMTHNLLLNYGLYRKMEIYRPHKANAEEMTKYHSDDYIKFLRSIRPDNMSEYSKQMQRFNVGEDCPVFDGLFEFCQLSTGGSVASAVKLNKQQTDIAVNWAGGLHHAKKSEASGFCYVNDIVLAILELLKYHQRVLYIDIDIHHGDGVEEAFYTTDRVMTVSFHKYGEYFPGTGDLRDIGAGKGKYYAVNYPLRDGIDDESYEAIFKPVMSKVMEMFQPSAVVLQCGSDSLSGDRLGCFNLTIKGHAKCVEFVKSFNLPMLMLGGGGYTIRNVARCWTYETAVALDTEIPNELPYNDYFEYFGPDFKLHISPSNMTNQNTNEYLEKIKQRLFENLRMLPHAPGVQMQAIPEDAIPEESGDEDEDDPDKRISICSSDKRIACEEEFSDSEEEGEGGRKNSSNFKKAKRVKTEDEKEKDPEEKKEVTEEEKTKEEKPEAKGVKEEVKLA
TEST_NAME: HDAC-1 immunocapture fluorescent biochemical assay (HeLa lysate)
CONDITION_DESCRIPTION: HDAC1 immunocaptured from HeLa extract
TEST_READOUT: IC50
Write down the value, and be sure its unit follows.

In [3]: df
Out[3]:
                                   compound  experimental_value
0  O=C(CCCCCCNC(=O)Nc1cn2c3c(cccc13)CCC2)NO               22 nM

Form field: reported IC50 of O=C(CCCCNC(=O)c1cn2c3c(cccc13)CCC2)NO
583 nM

Form field: reported IC50 of O=C(CCC1CCN(C(=O)c2cn3c4c(cccc24)CCC3)CC1)NO
35.7 nM

Form field: reported IC50 of O=C(CCCCCCNC(=O)c1cn2c3c(cccc13)CCC2)NO
41 nM

Form field: reported IC50 of O=C(CCCCCNC(=O)Nc1cn2c3c(cccc13)CCC2)NO
18.9 nM

Form field: reported IC50 of O=C(CCCCCCNC(=O)C(=O)c1cn2c3c(cccc13)CCC2)NO
90.4 nM

* * *

TGT: HDAC9 (Homo sapiens)
Sequence (Q9UKV0 whole entry, canonical isoform): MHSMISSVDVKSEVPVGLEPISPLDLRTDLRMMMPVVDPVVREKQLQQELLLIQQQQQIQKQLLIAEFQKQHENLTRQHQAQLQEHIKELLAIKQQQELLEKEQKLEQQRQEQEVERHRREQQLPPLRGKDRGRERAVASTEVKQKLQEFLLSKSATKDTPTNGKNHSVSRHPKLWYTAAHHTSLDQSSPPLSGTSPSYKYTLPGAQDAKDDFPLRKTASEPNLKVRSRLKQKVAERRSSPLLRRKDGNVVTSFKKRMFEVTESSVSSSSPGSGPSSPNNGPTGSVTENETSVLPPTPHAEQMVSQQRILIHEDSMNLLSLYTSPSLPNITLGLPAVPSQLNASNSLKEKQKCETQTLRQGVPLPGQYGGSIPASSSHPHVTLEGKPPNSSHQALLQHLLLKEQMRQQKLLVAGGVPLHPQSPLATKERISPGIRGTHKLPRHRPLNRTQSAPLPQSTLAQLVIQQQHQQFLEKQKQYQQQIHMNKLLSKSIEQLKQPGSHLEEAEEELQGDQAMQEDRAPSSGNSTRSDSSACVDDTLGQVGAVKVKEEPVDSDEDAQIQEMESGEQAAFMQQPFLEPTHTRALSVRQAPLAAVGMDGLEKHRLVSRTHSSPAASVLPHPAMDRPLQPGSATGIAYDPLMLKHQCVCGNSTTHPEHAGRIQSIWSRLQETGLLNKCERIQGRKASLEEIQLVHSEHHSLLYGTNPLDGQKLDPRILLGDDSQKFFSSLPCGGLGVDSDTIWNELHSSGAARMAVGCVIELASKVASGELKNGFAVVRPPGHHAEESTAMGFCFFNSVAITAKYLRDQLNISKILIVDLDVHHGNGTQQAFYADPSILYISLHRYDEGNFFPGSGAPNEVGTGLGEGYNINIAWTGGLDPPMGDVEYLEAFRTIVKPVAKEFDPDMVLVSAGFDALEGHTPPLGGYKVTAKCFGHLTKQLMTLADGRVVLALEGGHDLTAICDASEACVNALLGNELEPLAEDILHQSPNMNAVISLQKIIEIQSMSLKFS
TEST_NAME: HDAC isoform assay, HDAC9
TEST_READOUT: log10(IC50) (log10 of the value in nM)
Hello, just confirming the data are log10 of IC50 with units of nM.

Before answering, review these 2 worked examples.
>>> print(df.to_string())
                                   compound                   tgt  experimental_value
0  O=C(CCCCCCNC(=O)Nc1cn2c3c(cccc13)CCC2)NO  HDAC9 (Homo sapiens)                1.95
1  O=C(CCCCCCNC(=O)C(=O)c1cn2c3c(cccc13)CCC2)NO  HDAC9 (Homo sapiens)                3.03

Form field: reported log10(IC50) of O=C(CCCCCNC(=O)Nc1cn2c3c(cccc13)CCC2)NO
1.99

Form field: reported log10(IC50) of O=C(CCC1CCN(C(=O)c2cn3c4c(cccc24)CCC3)CC1)NO
2.73

Form field: reported log10(IC50) of O=C(CCCCCCNC(=O)c1cn2c3c(cccc13)CCC2)NO
2.62

Form field: reported log10(IC50) of O=C(CCCCCNC(=O)c1cn2c3c(cccc13)CCC2)NO
2.03

* * *

TGT: HDAC3 (Homo sapiens, UniProt O15379)
Construct: purchased BioMol
TEST_NAME: HDAC isoform assay, HDAC3
Format: biochemical
TEST_READOUT: pIC50
Note on pIC50: it is the negative log10 of concentration, concentration in mol/L.

>>> print(df.to_string())
                                  compound                                   tgt  test_readout  experimental_value
0  O=C(CCCCCCNC(=O)c1cn2c3c(cccc13)CCC2)NO  HDAC3 (Homo sapiens, UniProt O15379)         pIC50                7.34

Form field: reported pIC50 of O=C(CCCCCNC(=O)C(=O)c1cn2c3c(cccc13)CCC2)NO
7.69

Form field: reported pIC50 of O=C(CCCNC(=O)C(=O)c1cn2c3c(cccc13)CCC2)NO
6.20

Form field: reported pIC50 of O=C(CCCCCNC(=O)c1cn2c3c(cccc13)CCC2)NO
7.87

* * *

TGT: HDAC6 (Homo sapiens)
Sequence (Q9UBN7 whole entry, canonical isoform): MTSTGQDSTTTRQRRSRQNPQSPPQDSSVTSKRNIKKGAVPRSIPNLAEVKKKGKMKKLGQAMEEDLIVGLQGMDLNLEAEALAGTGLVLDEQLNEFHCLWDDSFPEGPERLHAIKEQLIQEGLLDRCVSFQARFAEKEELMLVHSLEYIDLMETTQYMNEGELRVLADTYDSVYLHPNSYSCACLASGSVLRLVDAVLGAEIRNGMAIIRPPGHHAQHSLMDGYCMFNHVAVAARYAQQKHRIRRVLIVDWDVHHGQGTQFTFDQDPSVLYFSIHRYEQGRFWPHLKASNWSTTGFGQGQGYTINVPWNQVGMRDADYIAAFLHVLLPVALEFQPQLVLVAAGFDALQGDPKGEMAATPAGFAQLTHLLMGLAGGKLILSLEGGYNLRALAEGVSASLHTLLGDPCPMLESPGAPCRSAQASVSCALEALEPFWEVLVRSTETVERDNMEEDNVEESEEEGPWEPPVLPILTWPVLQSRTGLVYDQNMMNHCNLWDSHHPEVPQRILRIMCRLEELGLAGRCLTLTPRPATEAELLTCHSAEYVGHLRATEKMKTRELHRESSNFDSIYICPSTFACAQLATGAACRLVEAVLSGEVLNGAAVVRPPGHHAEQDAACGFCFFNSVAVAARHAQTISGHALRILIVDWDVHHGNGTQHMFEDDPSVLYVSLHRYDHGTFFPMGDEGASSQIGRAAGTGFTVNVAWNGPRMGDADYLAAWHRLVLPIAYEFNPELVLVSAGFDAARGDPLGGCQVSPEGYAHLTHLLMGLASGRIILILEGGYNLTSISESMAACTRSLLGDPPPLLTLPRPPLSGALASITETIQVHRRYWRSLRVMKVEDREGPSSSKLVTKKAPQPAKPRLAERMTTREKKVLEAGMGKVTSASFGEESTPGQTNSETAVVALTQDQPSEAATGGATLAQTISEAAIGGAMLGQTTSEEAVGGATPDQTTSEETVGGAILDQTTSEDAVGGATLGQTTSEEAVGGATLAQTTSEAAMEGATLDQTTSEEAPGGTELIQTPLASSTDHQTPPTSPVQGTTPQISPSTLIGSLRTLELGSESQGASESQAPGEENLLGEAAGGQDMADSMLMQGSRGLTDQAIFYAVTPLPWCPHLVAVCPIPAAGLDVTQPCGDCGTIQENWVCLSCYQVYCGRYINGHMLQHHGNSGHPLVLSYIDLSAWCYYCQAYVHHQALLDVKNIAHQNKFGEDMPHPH
TEST_NAME: HDAC isoform assay, HDAC6
Strictly below 70 nM in IC50: 1.0. Otherwise: 0.0.

Solved cases below.
In [3]: df
Out[3]:
                                   compound  category_label
0  O=C(CCCCCCNC(=O)Nc1cn2c3c(cccc13)CCC2)NO             1.0
1   O=C(CCCCCCNC(=O)c1cn2c3c(cccc13)CCC2)NO             0.0
2    O=C(CCCCCNC(=O)c1cn2c3c(cccc13)CCC2)NO             1.0
3  O=C(CCCCCNC(=O)C(=O)c1cn2c3c(cccc13)CCC2)NO             0.0
4  O=C(NO)c1ccc(CNC(=O)c2cn3c4c(cccc24)CCC3)cc1             1.0
5   O=C(CCCCCNC(=O)Nc1cn2c3c(cccc13)CCC2)NO             1.0

Identify whether the molecule O=C(CCCCCCNC(=O)c1cc2cccc3c2n1CCC3)NO records IC50 below 70 nM.
1.0

Identify whether the molecule CC(C)(C)OC(=O)N1CCn2cc(C(=O)NCc3ccc(C(=O)NO)cc3)c3cccc(c32)C1 records IC50 below 70 nM.
0.0

Identify whether the molecule O=C(CCCCCCNC(=O)C(=O)c1cn2c3c(cccc13)CCC2)NO records IC50 below 70 nM.
0.0

Identify whether the molecule O=C(CCC1CCN(C(=O)c2cn3c4c(cccc24)CCC3)CC1)NO records IC50 below 70 nM.
0.0

Identify whether the molecule O=C(CCCNC(=O)C(=O)c1cn2c3c(cccc13)CCC2)NO records IC50 below 70 nM.
0.0

* * *

TGT: HDAC4 (Homo sapiens)
Sequence (P56524 whole entry, canonical isoform): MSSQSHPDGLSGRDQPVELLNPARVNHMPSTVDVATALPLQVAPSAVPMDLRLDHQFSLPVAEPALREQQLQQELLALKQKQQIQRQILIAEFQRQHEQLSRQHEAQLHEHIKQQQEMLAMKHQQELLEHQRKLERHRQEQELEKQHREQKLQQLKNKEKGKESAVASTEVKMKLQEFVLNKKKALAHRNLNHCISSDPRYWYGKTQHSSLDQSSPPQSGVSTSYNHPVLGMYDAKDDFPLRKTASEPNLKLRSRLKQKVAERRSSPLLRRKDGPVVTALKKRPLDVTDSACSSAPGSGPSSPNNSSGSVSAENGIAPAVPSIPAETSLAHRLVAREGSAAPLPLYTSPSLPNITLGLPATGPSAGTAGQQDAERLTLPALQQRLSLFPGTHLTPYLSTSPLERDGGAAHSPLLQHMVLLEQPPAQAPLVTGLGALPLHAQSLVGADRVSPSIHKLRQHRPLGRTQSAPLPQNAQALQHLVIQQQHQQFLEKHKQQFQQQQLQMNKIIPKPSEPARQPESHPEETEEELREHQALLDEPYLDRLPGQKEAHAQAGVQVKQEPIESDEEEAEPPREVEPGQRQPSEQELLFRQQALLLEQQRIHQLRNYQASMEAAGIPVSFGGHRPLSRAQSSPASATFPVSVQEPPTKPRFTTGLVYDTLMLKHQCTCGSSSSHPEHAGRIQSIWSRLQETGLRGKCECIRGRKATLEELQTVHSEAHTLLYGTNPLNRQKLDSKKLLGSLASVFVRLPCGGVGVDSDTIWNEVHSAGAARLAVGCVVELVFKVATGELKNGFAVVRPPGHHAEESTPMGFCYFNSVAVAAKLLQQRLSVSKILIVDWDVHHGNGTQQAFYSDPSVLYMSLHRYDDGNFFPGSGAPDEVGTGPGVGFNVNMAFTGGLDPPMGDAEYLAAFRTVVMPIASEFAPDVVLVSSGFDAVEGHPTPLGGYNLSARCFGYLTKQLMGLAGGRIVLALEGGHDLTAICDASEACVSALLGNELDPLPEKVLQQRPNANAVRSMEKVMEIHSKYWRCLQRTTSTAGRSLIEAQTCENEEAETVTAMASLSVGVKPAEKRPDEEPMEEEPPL
TEST_NAME: HDAC isoform assay, HDAC4
CONDITION_DESCRIPTION: substrate KI-177; read-out: HDAC4, IC50, ELISA (KI-177)
TEST_READOUT: log10 IC50 (log10 of the value in nM)
Hello, just confirming the data are log10 of IC50 with units of nM.

Before answering, review these 5 worked examples.
>>> print(df.to_string())
                                   compound  experimental_value
0  O=C(CCC1CCN(C(=O)c2cn3c4c(cccc24)CCC3)CC1)NO                1.84
1  O=C(CCCCCCNC(=O)Nc1cn2c3c(cccc13)CCC2)NO                1.61
2  O=C(CCCCCCNC(=O)C(=O)c1cn2c3c(cccc13)CCC2)NO                2.47
3     O=C(CCCCCCNC(=O)c1cc2cccc3c2n1CCC3)NO                1.45
4  CC(C)(C)OC(=O)N1CCn2cc(C(=O)NCc3ccc(C(=O)NO)cc3)c3cccc(c32)C1                2.90

Proceed to the following item.
Form field: reported log10 IC50 of O=C(CCCCCCNC(=O)c1cn2c3c(cccc13)CCC2)NO
1.61

* * *

Test system: Hut78 cells
TEST_NAME: MTS cell viability assay, Hut78
Format: cell-based
CONDITION_DESCRIPTION: Homo sapiens; Hut78, 72 hr; read-out: Hut78, IG50, MTS
TEST_READOUT: log10 IC50 (log10 of the value in µM)
Hello, just confirming the data are log10 of IC50 with units of µM.

In [3]: df
Out[3]:
                                   compound  experimental_value
0   O=C(CCCCCCNC(=O)c1cn2c3c(cccc13)CCC2)NO               -0.62
1  O=C(CCCCCCNC(=O)C(=O)c1cn2c3c(cccc13)CCC2)NO               -0.76

Form field: reported log10 IC50 of O=C(CCCCCNC(=O)Nc1cn2c3c(cccc13)CCC2)NO
0.10

Form field: reported log10 IC50 of O=C(CCCCCNC(=O)c1cn2c3c(cccc13)CCC2)NO
0.47

Form field: reported log10 IC50 of O=C(CCC1CCN(C(=O)c2cn3c4c(cccc24)CCC3)CC1)NO
-0.01

Form field: reported log10 IC50 of O=C(CCCNC(=O)C(=O)c1cn2c3c(cccc13)CCC2)NO
-0.04

Form field: reported log10 IC50 of O=C(CCCCCCNC(=O)Nc1cn2c3c(cccc13)CCC2)NO
-0.74
